These data points were gathered from patent US20030138894A1.

Measured IC50, listed per entry.
target: recombinant human-ACE-2 (human, UniProt Q9BYF1 18-740, limits assumed); assay: cell-based or functional assay
Sequence (Q9BYF1 18-740 limits assumed): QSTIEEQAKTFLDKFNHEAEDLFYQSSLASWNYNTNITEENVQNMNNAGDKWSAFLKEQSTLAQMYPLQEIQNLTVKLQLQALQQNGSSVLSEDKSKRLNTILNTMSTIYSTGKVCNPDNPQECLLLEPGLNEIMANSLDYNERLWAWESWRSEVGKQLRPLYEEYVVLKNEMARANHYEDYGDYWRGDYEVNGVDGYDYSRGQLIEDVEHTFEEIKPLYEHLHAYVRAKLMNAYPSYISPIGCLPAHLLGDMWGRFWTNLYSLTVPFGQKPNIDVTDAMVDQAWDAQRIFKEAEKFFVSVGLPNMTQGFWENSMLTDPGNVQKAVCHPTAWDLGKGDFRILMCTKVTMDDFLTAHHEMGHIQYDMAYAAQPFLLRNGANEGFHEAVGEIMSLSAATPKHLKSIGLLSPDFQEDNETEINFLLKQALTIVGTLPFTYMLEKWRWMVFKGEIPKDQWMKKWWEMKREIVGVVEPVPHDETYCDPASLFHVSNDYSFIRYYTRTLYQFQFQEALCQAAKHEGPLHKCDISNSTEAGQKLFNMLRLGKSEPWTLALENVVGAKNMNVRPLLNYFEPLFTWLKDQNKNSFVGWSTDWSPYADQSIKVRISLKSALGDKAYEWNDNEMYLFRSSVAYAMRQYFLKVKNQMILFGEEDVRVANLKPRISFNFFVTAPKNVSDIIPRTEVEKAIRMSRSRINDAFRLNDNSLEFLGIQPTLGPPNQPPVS
Positions of bridges follow the written chain, without caps; N, C: chain ends.
Note: unit µM is implicit; provide only the numeric part.

[
  {
    "binder": "Ac-AGSDWCGTWNNPCFHQGTEGGG-NH2 (disulfide 6-13 (inferred); also: oxidized peptide) [DX-531 Ac-AGSDWCGTWNNPCFHQGTEGGG-NH2]",
    "readout name": "IC50",
    "meas value": 0.5
  },
  {
    "binder": "Ac-GSRIGCRDSRCNWWAPGEGGG-NH2 (disulfide 6-11 (inferred); also: oxidized peptide) [DX-524 Ac-GSRIGCRDSRCNWWAPGEGGG-NH2]",
    "readout name": "IC50",
    "meas value": 0.6
  },
  {
    "binder": "Ac-GSRGFCRDSSCSFPAPGEGGG-NH2 (disulfide 6-11 (inferred); also: oxidized peptide) [DX-525 Ac-GSRGFCRDSSCSFPAPGEGGG-NH2]",
    "readout name": "IC50",
    "meas value": 1
  },
  {
    "binder": "Ac-AGWEVCHWAPMMCKHGGTEGGG-NH2 (disulfide 6-13 (inferred); also: oxidized peptide) [DX-529 Ac-AGWEVCHWAPMMCKHGGTEGGG-NH2]",
    "readout name": "IC50",
    "meas value": 0.4
  },
  {
    "binder": "Ac-GDGFTCSPIRMFPWFRCDLGDPEGGG-NH2 (disulfide 6-17 (inferred); not fully specified; printed as Ac-GDGFTCSPIRMFPWFRCDLGDPEGGG-NH2) [DX-601 Ac-GDGFTCSPIRMFPWFRCDLGDPEGGG-NH2]",
    "readout name": "IC50",
    "meas value": 0.068
  },
  {
    "binder": "Ac-GDFSPCKALRHSPWWVCPSGDPEGGG-NH2 (disulfide 6-17 (inferred); also: oxidized peptide) [DX-602 Ac-GDFSPCKALRHSPWWVCPSGDPEGGG-NH2]",
    "readout name": "IC50",
    "meas value": 0.12
  },
  {
    "binder": "Ac-GDLHACRPVRGDPWWACTLGDPEGGG-NH2 (disulfide 6-17 (inferred); also: oxidized peptide, synthetic, TN12 library; also called ACEH2-D8) [DX-513 Ac-GDLHACRPVRGDPWWACTLGDPEGGG-NH2]",
    "readout name": "IC50",
    "meas value": 0.09
  },
  {
    "binder": "Ac-AGQKECKFGYPHCLPWGTEGGG-NH2 (disulfide 6-13 (inferred); also: oxidized peptide) [DX-530 Ac-AGQKECKFGYPHCLPWGTEGGG-NH2]",
    "readout name": "IC50",
    "meas value": 30
  }
]

Qu. Please report the recorded IC50 for Ac-GDRLHCKPQRQSPWMKCQHLDPEGGG-NH2 (disulfide 6-17 (inferred); also: oxidized peptide, synthetic, TN12 library; also called B-H7) [DX-512 Ac-GDRLHCKPQRQSPWMKCQHLDPEGGG-NH2] .
Ans. 0.06

Qu. I would be grateful if you could share the reported IC50 for Ac-GDRYLCLPQRDKPWKFCNWFDPEGGG-NH2 (disulfide 6-17 (inferred); also: oxidized peptide) [DX-599 Ac-GDRYLCLPQRDKPWKFCNWFDPEGGG-NH2] .
Ans. 0.14
